Biological target: hNav1.6 (Homo sapiens, UniProt Q9UQD0, N1768D)
Construct: full-length alpha-subunit in HEK-293 cells with human beta1; with Sodium channel regulatory subunit beta-1
Test: automated whole-cell voltage clamp
quantityMeasured: pIC50
The meaning of pIC50 here: minus log10 of the concentration in molar units.

INPUT: Reported pIC50 for C=C(C)[C@@H]1CCC(C)=C[C@H]1c1c(O)cc(CCCCC)cc1O : what is it?
OUTPUT: 5.00

====

Target: mNav1.6 (Mus musculus, UniProt Q9WTU3)
Construct: full-length mouse alpha-subunit in HEK-293 cells with human beta1; with Sodium channel regulatory subunit beta-1 (human)
Experiment: automated whole-cell voltage clamp (Qube-384)
quantityMeasured: IC50 (µM)
Enter your answer as a number in µM; do not include the unit.

INPUT: Which IC50 is reported for this molecule? C=C(C)[C@@H]1CCC(C)=C[C@H]1c1c(O)cc(CCCCC)cc1O
OUTPUT: 2.4

====

Biological target: hNav1.5 (Homo sapiens, UniProt Q14524)
Construct: full-length alpha-subunit in HEK-293 cells with human beta1; with Sodium channel regulatory subunit beta-1
Experiment: automated whole-cell voltage clamp (Qube-384)
quantityMeasured: IC50 (µM)
The answer is to be given in µM; state only the numeric part.

INPUT: Enter reported IC50 observed with hNav1.5 (Homo sapiens, UniProt Q14524) for C=C(C)[C@@H]1CCC(C)=C[C@H]1c1c(O)cc(CCCCC)cc1O
OUTPUT: 3.8

====

Molecular target: hNav1.4 (Homo sapiens)
Construct: full-length alpha-subunit in HEK-293 cells with human beta1; with Sodium channel regulatory subunit beta-1
Assay: automated whole-cell voltage clamp (Qube-384)
quantityMeasured: IC50 (nM)
Give the value in nM but do not write nM after it.

INPUT: For the compound C=C(C)[C@@H]1CCC(C)=C[C@H]1c1c(O)cc(CCCCC)cc1O , what IC50 is on record?
OUTPUT: 1900

====

Biological target: hNav1.6 (Homo sapiens)
Construct: full-length alpha-subunit in HEK-293 cells with human beta1; with Sodium channel regulatory subunit beta-1
Experiment: automated whole-cell voltage clamp
quantityMeasured: pIC50
A value of pIC50 is the negative decimal logarithm of a concentration given in moles per litre.

INPUT: Could you share which pIC50 value was measured for C=C(C)[C@@H]1CCC(C)=C[C@H]1c1c(O)cc(CCCCC)cc1O ?
OUTPUT: 5.52

====

Target: hNav1.1 (Homo sapiens, UniProt P35498, F1774A)
Construct: full-length alpha-subunit in HEK-293 cells with human beta1; with Sodium channel regulatory subunit beta-1
Assay: automated whole-cell voltage clamp
quantityMeasured: IC50 (µM)
Numeric only. Scale: µM

INPUT: Which IC50 is reported with hNav1.1 (Homo sapiens, UniProt P35498, F1774A) for this entry: C=C(C)[C@@H]1CCC(C)=C[C@H]1c1c(O)cc(CCCCC)cc1O [cannabidiol] ?
OUTPUT: 4.8

====

Target: hNav1.1 (Homo sapiens)
Construct: full-length alpha-subunit in HEK-293 cells with human beta1; with Sodium channel regulatory subunit beta-1
Assay: automated whole-cell voltage clamp
What IC50 was measured for each of the following?
State just the number; it will be interpreted in nM.

INPUT: I'd like to know its IC50. The compound in question is C=C(C)[C@@H]1CCC(C)=C[C@H]1c1c(O)cc(CCCCC)cc1O
OUTPUT: 2500

INPUT: # IC50 lookup, item CCCCNc1ccc(C(=O)OCCN(C)C)cc1
OUTPUT: 1600

====

Target: hNav1.3 (Homo sapiens)
Construct: full-length alpha-subunit in HEK-293 cells with human beta1; with Sodium channel regulatory subunit beta-1
Test: automated whole-cell voltage clamp (Qube-384)
quantityMeasured: IC50 (µM)
// note: answer is a bare numeric in µM

INPUT: Record request: IC50 value, item C=C(C)[C@@H]1CCC(C)=C[C@H]1c1c(O)cc(CCCCC)cc1O
OUTPUT: 3.3
